- System: DLD1
- Measurement Protocol: cell viability (CellTiter-Glo) relative to plate median (fraction of plate median); higher = more viable cells
- Conditions Used: 5 µM; treatment time 24 h; reporter: 7TFP
cell viability for assorted compounds

Compound: CC[N+](C)(C)c1cccc(O)c1
Target System: DLD1
cell viability: 0.956
//
Compound: O=C(O)c1ccccc1C(=O)Nc1ccc(S(=O)(=O)Nc2nccs2)cc1
Target System: DLD1
cell viability: 1.05
//
Compound: CCCCC/C=C/CCC(=O)N[C@H]1[C@H](Oc2c3cc4cc2Oc2ccc(cc2Cl)[C@@H](O[C@@H]2O[C@H](CO)[C@@H](O)[C@H](O)[C@H]2NC(C)=O)[C@@H]2NC(=O)[C@H](NC(=O)[C@@H]4NC(=O)[C@H]4NC(=O)C(Cc5ccc(c(Cl)c5)O3)NC(=O)[C@H](N)c3ccc(O)c(c3)Oc3cc(O)cc4c3)c3ccc(O)c(c3)-c3c(OC4O[C@H](CO)[C@@H](O)[C@H](O)[C@@H]4O)cc(O)cc3[C@@H](C(=O)O)NC2=O)O[C@H](CO)[C@@H](O)[C@@H]1O (stereo not given in full) [TEICOPLANIN [A(2-1) shown]]
Target System: DLD1
cell viability: 1.04
//
Compound: C[C@@H]1C[C@H]2[C@@H]3CCC4=CC(=O)C=C[C@]4(C)[C@@]3(F)[C@@H](O)C[C@]2(C)[C@@]1(O)C(=O)COP(=O)(O)O
Target System: DLD1
cell viability: 1.03
//
Compound: C[C@@H]1CC2C3C[C@H](F)C4=CC(=O)C=C[C@]4(C)[C@@]3(F)[C@@H](O)C[C@]2(C)[C@@]1(O)C(=O)COC(=O)C(C)(C)C (stereo not given in full)
Target System: DLD1
cell viability: 1.01
